Please find below pKi data on Tissue-type plasminogen activator (Homo sapiens, UniProt P00750) compiled from the literature.
Sequence (P00750 whole entry): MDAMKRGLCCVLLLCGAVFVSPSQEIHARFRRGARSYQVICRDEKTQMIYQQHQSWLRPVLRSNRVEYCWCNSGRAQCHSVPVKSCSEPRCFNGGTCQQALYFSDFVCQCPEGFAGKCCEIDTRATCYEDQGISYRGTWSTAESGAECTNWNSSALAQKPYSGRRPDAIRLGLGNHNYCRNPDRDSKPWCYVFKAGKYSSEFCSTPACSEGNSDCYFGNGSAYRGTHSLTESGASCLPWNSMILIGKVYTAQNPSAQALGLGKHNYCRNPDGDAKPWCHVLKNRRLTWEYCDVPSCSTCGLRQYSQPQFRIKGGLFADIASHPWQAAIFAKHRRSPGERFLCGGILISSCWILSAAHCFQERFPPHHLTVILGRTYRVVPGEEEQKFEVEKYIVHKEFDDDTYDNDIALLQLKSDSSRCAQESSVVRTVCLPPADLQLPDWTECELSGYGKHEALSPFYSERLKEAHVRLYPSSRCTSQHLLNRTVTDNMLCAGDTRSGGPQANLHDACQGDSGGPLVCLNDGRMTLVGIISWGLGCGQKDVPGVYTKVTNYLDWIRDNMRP
Would you please state pKi, meaning minus log10 of the concentration in mol/L, as a bare number?

compound	pKi
N=C(N)c1ccc2cccc(Nc3ncccn3)c2c1	4.62
CC(C)Oc1cccc(NC(=O)c2cc(C3CCOC3)c3cc(C(=N)N)ccc3c2)c1 (centres undefined)	6.89
N=C(N)c1ccc2cc(C(=O)Nc3ccccc3)ccc2c1	4.50
CN1CCN(C(=O)C2(NS(=O)(=O)c3ccc4c(Cl)cnc(N=C(N)N)c4c3)CCCC2)CC1	4.46
NC(N)=Nc1nccc2c(OCc3ccccc3)cccc12	4.89
O=C1COc2ccc(Cl)cc2CNC(=O)[C@@H]2CCCN2C(=O)[C@@H](C2CCCCC2)NC(=O)CN1	5.25
N=C(N)c1ccc2cc(C3CC3c3ccccc3)cc(Nc3ncccn3)c2c1 (centres undefined)	5.30
O=C1COc2ccc(Cl)cc2CNC(=O)[C@@H]2CCCN2C(=O)C(C2CCCCC2)NC(=O)CCN1 (some centres undefined)	5.05

Input line: Fill blank: measured pKi of the compound NC1CCC(CNC(=O)[C@@H]2CCCN2C(=O)C(NS(=O)(=O)Cc2ccccc2)C(c2ccccc2)c2ccccc2)CC1 (some centres undefined) is ____.
Output line: 2.17

Input line: Item `NC(N)=Nc1ncc(Cl)cc1/C=C/c1cccc(C(=O)O)c1` has what recorded pKi?
Output line: 4.28

Input line: Using the record for CC(C)C1=NCCc2ccc([C@H]3CC3c3ccc4cc(C(=N)N)ccc4c3)cc21 (some centres undefined) , report its pKi.
Output line: 4.98

Input line: If you can, please state the reported pKi value of CCOC(=O)C1CCN(C(=O)C(Cc2cccc(C(=N)N)c2)NS(=O)(=O)c2ccc3ccccc3c2)CC1 (centres undefined) .
Output line: 4.62
